# Test system: RXRa homodimer (NR concentration 180 nM)
# Protocol Description: PBM binding z-score (relative to random genomic background probes); higher = stronger binding; sequences stand for … in GC…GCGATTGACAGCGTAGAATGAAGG
Recorded Metric: PBM binding z-score
Write the number on its own, no unit after it.

Example entries and their recorded answers appear below.
>>> observed_measurement("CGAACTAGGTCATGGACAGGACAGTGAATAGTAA")
3.41
>>> observed_measurement("ATATGAAGGTTACATCCGGGTCATTCAGGCTATG")
3.74
>>> observed_measurement("TCTTGTAGATCAACAGGTGGTTAAGAAAGATCGA")
-0.126

Input line: # return PBM binding z-score of GCACCAAGGTGAATAGGTCGTTGATGAGTAGGCG (system: RXRa homodimer (NR concentration 180 nM))
Output line: 1.77

Input line: Give PBM binding z-score for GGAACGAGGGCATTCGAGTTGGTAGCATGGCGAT tested on RXRa homodimer (NR concentration 180 nM).
Output line: 0.508

Input line: Write down measured PBM binding z-score (RXRa homodimer (NR concentration 180 nM)) for this sequence. GCTTACGGGTCACAGGTTATAGCATGAATAGAAT
Output line: 5.84

----------
# Tested on: PPARg homodimer (NR concentration 180 nM)
# Protocol Description: PBM binding z-score (relative to random genomic background probes); higher = stronger binding; sequences stand for … in GC…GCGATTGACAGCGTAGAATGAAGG
Recorded Metric: PBM binding z-score
In your answer, state the number alone without any accompanying words.

>>> observed_measurement("ATATGTAGGTTGTCGGGTCATTCAGTTTGCGCAT")
2.56

Input line: State, in one line, measured PBM binding z-score of TCATATCGGTAAAAGGTGAAAGTCGGTGTGGTAA
Output line: 2.19

Input line: Query PBM binding z-score for TCATTTAGGTAAATGCTAGGTGAAAGTCCGATCT
Output line: 0.343

Input line: Supply reported PBM binding z-score belonging to this sequence: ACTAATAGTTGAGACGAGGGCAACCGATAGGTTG
Output line: -0.0381

Input line: Let me know recorded PBM binding z-score for GCGACTGGGGCATCAGTAGGTTACCATAACTTAA , thanks.
Output line: 0.247

Input line: For the sequence TCTGCTAGGTCAACGAGGGTCAGCTAATCTGCTA , give its measured PBM binding z-score value.
Output line: 2.15

----------
Each entry below carries its reported PBM binding z-score.
# System: RXRa DBDmut IVT, anti-RXR (DBD mutation: RXRa K156A/R161A, NR concentration 90 nM)
# Protocol Description: PBM binding z-score (relative to random genomic background probes); higher = stronger binding; sequences stand for … in GC…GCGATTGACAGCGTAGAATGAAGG

Some sequences with recorded PBM binding z-score:
>>> observed_measurement("CCTAGCAGGCCAATCTGGGTCATTCAAGGCTTGA")
0.224
>>> observed_measurement("CTACCAAGGTGAACAAGGGCGTTGATTACTATTC")
0.764
>>> observed_measurement("CCTACTGGGCCATTCATAGGTCATTGATCATATG")
0.112

Input line: Please tell me the measured PBM binding z-score for GGAACGAGGCCAAAGTTGATAGCATCTGTCGACG ; system: RXRa DBDmut IVT, anti-RXR (DBD mutation: RXRa K156A/R161A, NR concentration 90 nM).
Output line: 0.917

Input line: // output PBM binding z-score; input TCTTGGAGGACACGAAGGTCAGAGCTTTCCAGAG ; system RXRa DBDmut IVT, anti-RXR (DBD mutation: RXRa K156A/R161A, NR concentration 90 nM)
Output line: 0.774

Input line: GET PBM binding z-score where system = RXRa DBDmut IVT, anti-RXR (DBD mutation: RXRa K156A/R161A, NR concentration 90 nM) and item = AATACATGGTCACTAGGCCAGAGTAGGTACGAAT
Output line: -0.405

Input line: Give PBM binding z-score; test system RXRa DBDmut IVT, anti-RXR (DBD mutation: RXRa K156A/R161A, NR concentration 90 nM); sequence TCATAGAGGTAAAAGGTGAAAGTCGGTGTGGTAA
Output line: 1.01

Input line: # assay system RXRa DBDmut IVT, anti-RXR (DBD mutation: RXRa K156A/R161A, NR concentration 90 nM): give PBM binding z-score of TCTTGTAGGTCAAGCAGGTTAAGAAAGCCTGAGT
Output line: 1.7

Input line: Under RXRa DBDmut IVT, anti-RXR (DBD mutation: RXRa K156A/R161A, NR concentration 90 nM), report PBM binding z-score for ATCTCTAGGTAAAAATTCAGTGAATCCCGAGGAT
Output line: -0.329

Input line: Please look at TTACCAAGGTGAGCTGAGGTCGTTGAACCAACTC and tell me its recorded PBM binding z-score on RXRa DBDmut IVT, anti-RXR (DBD mutation: RXRa K156A/R161A, NR concentration 90 nM).
Output line: -0.0646

Input line: Report PBM binding z-score under test system RXRa DBDmut IVT, anti-RXR (DBD mutation: RXRa K156A/R161A, NR concentration 90 nM) for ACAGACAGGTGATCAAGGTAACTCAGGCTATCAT .
Output line: -0.511

Input line: Under RXRa DBDmut IVT, anti-RXR (DBD mutation: RXRa K156A/R161A, NR concentration 90 nM): report PBM binding z-score of GCAACGAGGGCAAGTTGATAGCAGAGTTTGATGG .
Output line: 2.2

Input line: Give PBM binding z-score only, for AGTCAAAGTTCATCTAGGTAACGCAAGATATGCT , using RXRa DBDmut IVT, anti-RXR (DBD mutation: RXRa K156A/R161A, NR concentration 90 nM) data.
Output line: 4.76

Input line: Jot down PBM binding z-score (RXRa DBDmut IVT, anti-RXR (DBD mutation: RXRa K156A/R161A, NR concentration 90 nM)) of CCTACTGGGCCACGGAAGGTCATTGATTCAGTGA .
Output line: -0.515

Input line: Under RXRa DBDmut IVT, anti-RXR (DBD mutation: RXRa K156A/R161A, NR concentration 90 nM): report PBM binding z-score of GTACCAAGGTGAATAGGGCGTTGATGAGTAGGCG .
Output line: -0.247

Input line: Please report the measured PBM binding z-score for TAGCCTAGGTCATTCAGGGGCCAGTCTAGAAAGC tested on RXRa DBDmut IVT, anti-RXR (DBD mutation: RXRa K156A/R161A, NR concentration 90 nM).
Output line: 1.66
